tested system: T1, mouse GLP-1 receptor (mouse, UniProt O35659 22-463)
T1 sequence (looked up): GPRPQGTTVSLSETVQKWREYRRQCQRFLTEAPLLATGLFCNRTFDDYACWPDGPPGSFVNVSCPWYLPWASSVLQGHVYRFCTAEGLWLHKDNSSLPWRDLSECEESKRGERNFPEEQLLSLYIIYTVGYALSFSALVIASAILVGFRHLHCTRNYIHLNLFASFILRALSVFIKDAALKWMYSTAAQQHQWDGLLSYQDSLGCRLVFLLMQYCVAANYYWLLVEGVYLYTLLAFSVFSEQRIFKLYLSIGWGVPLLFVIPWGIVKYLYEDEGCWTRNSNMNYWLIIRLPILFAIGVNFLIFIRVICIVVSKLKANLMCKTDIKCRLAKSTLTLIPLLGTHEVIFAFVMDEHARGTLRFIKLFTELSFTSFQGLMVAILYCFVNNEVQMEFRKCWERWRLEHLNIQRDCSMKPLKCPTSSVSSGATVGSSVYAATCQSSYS
experiment description: cell-based or functional assay
No end group written: not given here.
experimental endpoint: EC50 mouse

binder	assay result
THAEGTFTSDVSSYLEGQAAKEFIAWLVKGR (not fully specified; ends and bridges not checked, Not pegylated) [T-GLP-1 (SEQ ID NO: 251)]	2 nM
MHHHAEGTFTSDVSSYLEGQAAKEFIAWLVKGR (ends and bridges not checked, Not pegylated) [MHH-GLP1 (SEQ ID NO: 258)]	5 nM
MEHAEGTFTSDVSSYLEGQAAKEFIAWLVKGR (Not pegylated) [ME-GLP1 (SEQ ID NO: 264)]	4 nM
MLHAEGTFTSDVSSYLEGQAAKEFIAWLVKGR (ends and bridges not checked, Not pegylated) [ML-GLP1 (SEQ ID NO: 262)]	6 nM
VHAEGTFTSDVSSYLEGQAAKEFIAWLVKGR (ends and bridges not checked, Not pegylated) [V-GLP-1 (SEQ ID NO: 252)]	1 nM
